experiment: Liver microsomal stability, human; format: in vitro ADME; conditions: human liver microsomes
metric: half-life (min)
Answers are plain numbers, in min.

Item under review: C[C@@H]1CC2=C(CN1Cc1cccc(C#N)c1)C(=O)N(Cc1ccc(Br)cc1)C1=NCCN12 . Reported half-life?
13.7

====

assay: PK study, oral 50 mg/kg; format: in vivo, ICR mice; conditions: female, ICR, mouse, plasma, po, 50 mg/kg
metric: AUC(0-inf) (ng·h/mL)
Numbers only, in ng·h/mL.

# lookup: AUC(0-inf) of C[C@@H]1CC2=C(CN1Cc1cccc(C#N)c1)C(=O)N(Cc1ccc(Br)cc1)C1=NCCN12
9840

====

assay: PK study, oral 50 mg/kg; type: in vivo, ICR mice; conditions: female, ICR, mouse, plasma, po, 50 mg/kg
metric: MRT

Give its MRT value. Item: C[C@@H]1CC2=C(CN1Cc1cccc(C#N)c1)C(=O)N(Cc1ccc(Br)cc1)C1=NCCN12
2.61 h

====

experiment: PK study, oral 50 mg/kg; format: in vivo, ICR mice; details: female, ICR, mouse, plasma, po, 50 mg/kg
metric: Cmax (ng/mL)
Answers are plain numbers, in ng/mL.

What does the record list as Cmax for C[C@@H]1CC2=C(CN1Cc1cccc(C#N)c1)C(=O)N(Cc1ccc(Br)cc1)C1=NCCN12 ?
3420

====

biological target: ClpP (Homo sapiens); assay: In vitro enzyme assay: ClpP peptidase activity with AC-WLA-AMC; conditions: EC50 (ClpP proteolytic activity), mean ± SD, n = 3
Sequence (Q16740 57-277): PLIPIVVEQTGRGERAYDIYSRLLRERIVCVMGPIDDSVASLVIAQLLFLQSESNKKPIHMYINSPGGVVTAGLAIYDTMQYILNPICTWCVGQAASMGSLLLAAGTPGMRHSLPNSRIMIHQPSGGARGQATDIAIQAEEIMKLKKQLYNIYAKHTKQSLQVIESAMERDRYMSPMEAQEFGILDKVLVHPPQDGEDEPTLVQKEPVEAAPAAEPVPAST
Consider the following molecules; for each one, report its log10 of EC50.
Answers are given as log10 of EC50 in nM.

Worked cases, answers included:
CC(c1ccc(C(F)(F)F)cc1)N1C(=O)C2=C(CCN(Cc3ccccc3)C2)N2CCN=C21 (centres unmarked)
3.42
CC1(C)CN(Cc2ccccc2)CC2=C1N1CCN=C1N(Cc1ccc(C(F)(F)F)cc1)C2=O
3.22
CC1CN(Cc2ccccc2)CC2=C1N1CCN=C1N(Cc1ccc(C(F)(F)F)cc1)C2=O (centres unmarked)
3.15
CC(c1ccccc1)N1CCC2=C(C1)C(=O)N(Cc1ccc(C(F)(F)F)cc1)C1=NCCN12 (centres unmarked)
2.29

Lab note: next molecule to report on.
Please report the recorded log10 of EC50 for C[C@@H]1CC2=C(CN1Cc1cccc(C#N)c1)C(=O)N(Cc1ccc(Br)cc1)C1=NCCN12 .
1.37

====

experiment: PK study, oral 50 mg/kg; format: in vivo, ICR mice; conditions: female, ICR, mouse, plasma, po, 50 mg/kg
metric: half-life
Provide a numeric answer, followed by its unit.

Item under review: C[C@@H]1CC2=C(CN1Cc1cccc(C#N)c1)C(=O)N(Cc1ccc(Br)cc1)C1=NCCN12 . Reported half-life?
1.45 h
